# Study Target: T1, recombinant human domain 1-3His6 of the cation-independent mannose-6-phosphate receptor (human, UniProt P11717 41-467)
# T1 construct: Biotinylated (NHS-PEG4-biotin) for BLI; Glycosylated; also called hDom1-3His6; hCI-M6PRD1-D3
# Assay Method Text: BLI exp 1, dissoc pH 7
Outcome Measure: kon (M⁻¹ s⁻¹)

anti-CI-M6PR VHH3 (VHH, His6-tagged; made in Pichia pastoris) VHH: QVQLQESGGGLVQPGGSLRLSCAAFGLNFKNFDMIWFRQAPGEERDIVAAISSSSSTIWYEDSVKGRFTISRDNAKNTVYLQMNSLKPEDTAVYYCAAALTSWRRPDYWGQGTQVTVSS :: 2.24e+06

[1] anti-CI-M6PR VHH11 (VHH, His6-tagged; made in Pichia pastoris) VHH: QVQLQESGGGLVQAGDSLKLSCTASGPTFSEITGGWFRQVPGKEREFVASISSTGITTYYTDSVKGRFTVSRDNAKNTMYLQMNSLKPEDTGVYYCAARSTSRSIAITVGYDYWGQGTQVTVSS
[2] anti-CI-M6PR VHH9 (VHH, His6-tagged; made in Pichia pastoris) VHH: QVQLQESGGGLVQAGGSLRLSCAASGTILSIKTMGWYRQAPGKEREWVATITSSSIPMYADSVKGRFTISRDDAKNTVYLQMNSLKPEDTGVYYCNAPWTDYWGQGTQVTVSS
Which of the two gives a bigger number for kon: 1 or 2 ? Kindly give the label for the entry you pick.
2
